Molecular target: T1, mfPRLR.mmh (soluble monomeric macaca fascicularis PRLR) (macaca fascicularis)
T1 construct: soluble monomeric construct; also called macaca fascicularis (mf) PRLR.mmh
T1 chain: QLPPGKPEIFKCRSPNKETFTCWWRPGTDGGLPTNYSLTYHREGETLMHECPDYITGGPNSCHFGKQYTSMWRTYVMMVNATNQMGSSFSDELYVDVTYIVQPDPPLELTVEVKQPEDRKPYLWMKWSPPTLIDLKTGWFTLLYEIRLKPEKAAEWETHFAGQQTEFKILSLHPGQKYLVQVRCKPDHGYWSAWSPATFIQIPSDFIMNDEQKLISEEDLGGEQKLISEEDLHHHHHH
Experiment: SPR, 37C, mAb capture
Known T½ of a selection of binders

binder	T½, min
H1H6976N (antibody, human IgG1, V domains shown, also called H2M6976N) VH: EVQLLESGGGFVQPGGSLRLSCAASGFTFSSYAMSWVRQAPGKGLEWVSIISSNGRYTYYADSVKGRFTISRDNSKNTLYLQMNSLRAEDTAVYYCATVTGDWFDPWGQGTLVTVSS VL: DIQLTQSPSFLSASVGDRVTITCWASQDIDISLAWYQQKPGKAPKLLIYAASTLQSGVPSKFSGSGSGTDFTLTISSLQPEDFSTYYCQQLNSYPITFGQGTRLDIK	3.7
H1H6803P (antibody, human IgG1, V domains shown, human IgG1 Fc (H1H)) VH: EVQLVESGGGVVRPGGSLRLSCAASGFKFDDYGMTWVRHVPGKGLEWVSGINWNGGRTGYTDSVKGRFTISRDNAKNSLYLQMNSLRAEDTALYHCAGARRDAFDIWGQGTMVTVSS VL: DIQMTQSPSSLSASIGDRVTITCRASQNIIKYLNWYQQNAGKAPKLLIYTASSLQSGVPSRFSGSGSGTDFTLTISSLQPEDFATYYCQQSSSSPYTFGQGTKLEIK	18
H1H6765P (antibody, human IgG1, V domains shown, human IgG1 Fc (H1H)) VH: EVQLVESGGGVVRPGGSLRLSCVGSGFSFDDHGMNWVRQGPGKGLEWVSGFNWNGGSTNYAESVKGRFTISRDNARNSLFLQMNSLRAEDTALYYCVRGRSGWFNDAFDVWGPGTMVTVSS VL: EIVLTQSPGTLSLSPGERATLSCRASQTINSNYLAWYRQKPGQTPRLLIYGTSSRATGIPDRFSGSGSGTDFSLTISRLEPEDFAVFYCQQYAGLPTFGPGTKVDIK	215
